Data origin, for the record: PubChem BioAssay

# measurement-target: Torsin-1A-interacting protein 1 (Homo sapiens) (UniProt Q5JTV8)
# Sequence (Q5JTV8 whole entry, looked up): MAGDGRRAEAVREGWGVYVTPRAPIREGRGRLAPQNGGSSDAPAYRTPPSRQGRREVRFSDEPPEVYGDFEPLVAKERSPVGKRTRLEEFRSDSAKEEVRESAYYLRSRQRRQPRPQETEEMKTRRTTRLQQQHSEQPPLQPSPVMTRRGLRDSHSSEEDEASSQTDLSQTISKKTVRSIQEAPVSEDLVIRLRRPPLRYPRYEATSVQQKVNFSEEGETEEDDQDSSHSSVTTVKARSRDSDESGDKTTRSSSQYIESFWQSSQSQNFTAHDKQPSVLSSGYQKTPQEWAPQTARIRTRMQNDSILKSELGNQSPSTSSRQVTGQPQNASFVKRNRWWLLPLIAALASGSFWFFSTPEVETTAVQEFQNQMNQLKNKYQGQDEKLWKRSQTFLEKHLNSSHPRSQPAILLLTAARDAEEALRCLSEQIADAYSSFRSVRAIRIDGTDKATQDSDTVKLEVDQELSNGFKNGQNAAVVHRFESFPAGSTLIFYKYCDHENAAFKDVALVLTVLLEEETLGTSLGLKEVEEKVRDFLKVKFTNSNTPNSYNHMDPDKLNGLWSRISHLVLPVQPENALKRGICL
# method-summary: LAP1 binders from COS7 cell lysate, primary screen, small-molecule microarray, 635/667 nm fluorescence (AID 1116)
# run-conditions: COS7-hLAP1 lysate binding, 635 nm fluorescence, higher = more signal
Threshold check on composite z-score: at or above 0.2 gives fulfilled, strictly below gives not fulfilled.

Use the examples below as a reference point.
compound	qualitative-label
O=C1[C@H]2[C@H]3[C@H](O)[C@H](O)CC(=NOC[C@@H](O)COCc4ccco4)[C@@H]3CC[C@H]2C(=O)N1Cc1ccccc1	fulfilled
C=CC[C@@H]1C=C[C@H](ON=C[C@@H](NS(=O)(=O)c2ccc(C)cc2)[C@H](C)C=CCC(=O)OC)[C@@H](CO)O1	fulfilled

Reported composite z-score reaches at least 0.2 for C=CCOCC1CN2[C@@H](CC[C@@H](C)[C@@H]2c2ccc(Br)cc2)C(=O)O1 (some centres undefined) ?
not fulfilled

Quick check, composite z-score >= 0.2? COc1ccc(-c2cnnc(CCCn3ccnc3-c3ccccc3)n2)cc1
fulfilled

Does the reported composite z-score for C[C@@H]1C=CCC(=O)OC[C@H](C)C(=O)N[C@@H](Cc2ccccc2)C(=O)OC1 fall at or above the 0.2 mark?
not fulfilled

Is it the case that CCOC(=O)[C@H](CC(C)C)NC(=O)CCC1CC(OC(=O)NCc2ccc3c(c2)OCO3)CC2(CCCC(COC(=O)NCCc3ccc(Cl)cc3)O2)O1 (some centres undefined) has composite z-score reaching or exceeding 0.2?
fulfilled

Given the entry O=C1CCCC=C1C(O)COCc1ccccc1 (centres undefined) , answer whether its composite z-score meets or surpasses 0.2.
fulfilled

Quick check, composite z-score >= 0.2? CCN1C(=O)[C@H]2[C@H]3[C@H](O)[C@H](O)CC(=NNC(=O)OCc4ccccc4)[C@@H]3CC[C@H]2C1=O
not fulfilled

Item CCOC(=O)CCN1C(=O)[C@H]2[C@H]3[C@H](O)[C@H](O)CC(=NOCC=C(C)CCC=C(C)C)[C@@H]3CC[C@H]2C1=O with composite z-score of 0.2 or above?
not fulfilled

Could you verify whether the entry O=C1C2=CC[C@H]3C(=O)N(C[C@@H]4CCCO4)C(=O)[C@H]3[C@H]2[C@H](O)[C@@H]2O[C@H]12 shows composite z-score of no less than 0.2?
fulfilled

Hello, I need to know if CCc1cc2c(nc1CC)CCN(CCC(C)=NOCC[C@@H]1C=C[C@H](OC(C)=O)[C@@H](COC(C)=O)O1)C2 has measured composite z-score not below 0.2. Thanks!
fulfilled

Is composite z-score at least 0.2? Consider CCOC(=O)[C@H](Cc1ccccc1)NC(=O)CCC1CC(OC(=O)NCc2cccc3ccccc23)CC2(CCCC(COC(=O)NCCc3ccc(Cl)cc3)O2)O1 (some centres undefined)
fulfilled

Is composite z-score at least 0.2? Consider O=C1[C@H]2[C@H]3[C@H](O)[C@H](O)CC(=NO[C@@H]4O[C@H](CO)[C@@H](O)[C@H](O)[C@H]4O)[C@H]3CC[C@H]2C(=O)N1C[C@@H]1CCCO1
not fulfilled

# bool: composite z-score of C#CCCCON=C1C[C@@H](O)[C@@H](O)[C@@H]2[C@@H]3C(=O)N(C[C@@H]4CCCO4)C(=O)[C@@H]3CC[C@@H]12 >= 0.2
not fulfilled

Answer whether composite z-score of COC(=O)[C@H](C)NC(=O)CCC1CC(OC(=O)NCCc2ccc(F)cc2)CC2(CCCC(COC(=O)NCCOc3ccccc3)O2)O1 (some centres undefined) is greater than or equal to 0.2.
fulfilled
